# Tested on: croton oil-induced granuloma
# assayExplanation: Test for croton oil-induced granuloma (air pouch exudate and thymus weight)
# Assay type: in vivo, rat
# recordedConditions: male Wistar rats, dose 0.001 mg/rat into pouch, 7 days, vs control group
valueType: Rate of thymus atrophy (systemic side effects) (%)
Dear colleague, please return just the value in %, with no unit written.

Return Rate of thymus atrophy (systemic side effects) measured with croton oil-induced granuloma given this compound: CCCC1O[C@@H]2C[C@H]3[C@@H]4CCC5=CC(=O)C=C[C@]5(C)[C@H]4[C@@H](O)C[C@]3(C)[C@]2(C(=O)CO)O1 (stereo partly drawn) [Budesonide(R), reference compound]
15.6

Return Rate of thymus atrophy (systemic side effects) measured with croton oil-induced granuloma given this compound: CCC(=O)OCC1OC(OCC(=O)C23OC(C4CCCCC4)OC2CC2C4CCC5=CC(=O)C=CC5(C)C4C(O)CC23C)C(OC(=O)CC)C(OC(=O)CC)C1OC(=O)CC (stereo not drawn) [Compound 4]
0.0

Return Rate of thymus atrophy (systemic side effects) measured with croton oil-induced granuloma given this compound: CC12C=CC(=O)C=C1CCC1C2C(O)CC2(C)C1CC1OC(C3CCCCC3)OC12C(=O)COC1OC(COC(=O)c2ccco2)C(OC(=O)c2ccco2)C(OC(=O)c2ccco2)C1OC(=O)c1ccco1 (stereo not drawn) [Compound 8]
0.0

Return Rate of thymus atrophy (systemic side effects) measured with croton oil-induced granuloma given this compound: CC(C)C(=O)OCC(=O)[C@@]12O[C@H](C3CCCCC3)O[C@@H]1C[C@H]1[C@@H]3CCC4=CC(=O)C=C[C@]4(C)[C@H]3[C@@H](O)C[C@@]12C [Ciclesonide, ciclesonide, reference compound]
6.0

Return Rate of thymus atrophy (systemic side effects) measured with croton oil-induced granuloma given this compound: CC12C=CC(=O)C=C1CCC1C2C(O)CC2(C)C1CC1OC(C3CCCCC3)OC12C(=O)COC1OC(COC=O)C(OC=O)C(OC=O)C1OC=O (stereo not drawn) [Compound 7]
2.9

Return Rate of thymus atrophy (systemic side effects) measured with croton oil-induced granuloma given this compound: CCCC(=O)OCC1OC(OCC(=O)C23OC(C4CCCCC4)OC2CC2C4CCC5=CC(=O)C=CC5(C)C4C(O)CC23C)C(OC(=O)CCC)C(OC(=O)CCC)C1OC(=O)CCC (stereo not drawn) [Compound 5]
0.0

----------
# Test system: croton oil-induced ear edema
# assayExplanation: Test for croton oil-induced ear edema
# Assay type: in vivo
# recordedConditions: rat right auricle, ointment concentration 0.001%, 24 hours after croton oil
# Method: Croton oil ear edema test, which is a representative model for dermatitis, was used to study the pharmacological effect of compounds of the present invention. Five individuals/group of rats of 5 weeks old (body weight, 128 g to 169 g) were used. One day before the test, the thickness of the right ear was measured under ether anesthesia using a dial thickness gauge, to obtain the Pre value. […]
valueType: Edema suppression rate of 24 hours after administration of inflammatory agent (%)
Dear colleague, please return just the value in %, with no unit written.

Which Edema suppression rate of 24 hours after administration of inflammatory agent (%) is listed for CCC(=O)OCC1OC(OCC(=O)C23OC(C4CCCCC4)OC2CC2C4CCC5=CC(=O)C=CC5(C)C4C(O)CC23C)C(OC(=O)CC)C(OC(=O)CC)C1OC(=O)CC (stereo not shown) ?
33.8

Which Edema suppression rate of 24 hours after administration of inflammatory agent (%) is listed for CCCC(=O)OCC1OC(OCC(=O)C23OC(C4CCCCC4)OC2CC2C4CCC5=CC(=O)C=CC5(C)C4C(O)CC23C)C(OC(=O)CCC)C(OC(=O)CCC)C1OC(=O)CCC (stereo not shown) ?
11.1

Which Edema suppression rate of 24 hours after administration of inflammatory agent (%) is listed for CC12C=CC(=O)C=C1CCC1C2C(O)CC2(C)C1CC1OC(C3CCCCC3)OC12C(=O)COC1OC(CO)C(O)C(O)C1O (stereo not shown) ?
12.5

Which Edema suppression rate of 24 hours after administration of inflammatory agent (%) is listed for CC(=O)OC1C(C)OC(OCC(=O)C23OC(C4CCCCC4)OC2CC2C4CCC5=CC(=O)C=CC5(C)C4C(O)CC23C)C(OC(C)=O)C1OC(C)=O (stereo not shown) [Compound 9] ?
17.8

Which Edema suppression rate of 24 hours after administration of inflammatory agent (%) is listed for CC12C=CC(=O)C=C1CCC1C2C(O)CC2(C)C1CC1OC(C3CCCCC3)OC12C(=O)COC1OC(COC(=O)c2ccco2)C(OC(=O)c2ccco2)C(OC(=O)c2ccco2)C1OC(=O)c1ccco1 (stereo not shown) ?
25.9

Which Edema suppression rate of 24 hours after administration of inflammatory agent (%) is listed for CC(=O)NC1C(OCC(=O)C23OC(C4CCCCC4)OC2CC2C4CCC5=CC(=O)C=CC5(C)C4C(O)CC23C)OC(COC(C)=O)C(OC(C)=O)C1OC(C)=O (stereo not shown) [Compound 12] ?
36.6

Which Edema suppression rate of 24 hours after administration of inflammatory agent (%) is listed for CC(C)C(=O)OCC1OC(OCC(=O)C23OC(C4CCCCC4)OC2CC2C4CCC5=CC(=O)C=CC5(C)C4C(O)CC23C)C(OC(=O)C(C)C)C(OC(=O)C(C)C)C1OC(=O)C(C)C (stereo not shown) ?
30.5

Which Edema suppression rate of 24 hours after administration of inflammatory agent (%) is listed for CCCC1O[C@@H]2C[C@H]3[C@@H]4CCC5=CC(=O)C=C[C@]5(C)[C@H]4[C@@H](O)C[C@]3(C)[C@]2(C(=O)CO)O1 (stereo partly shown) [Budesonide, budesonide, reference compound] ?
7.6

Which Edema suppression rate of 24 hours after administration of inflammatory agent (%) is listed for CC(=O)OCC1OC(OCC(=O)C23OC(C4CCCCC4)OC2CC2C4CCC5=CC(=O)C=CC5(C)C4C(O)CC23C)C(OC(C)=O)C(OC(C)=O)C1OC(C)=O (stereo not shown) ?
48.1

Which Edema suppression rate of 24 hours after administration of inflammatory agent (%) is listed for CC(C)C(=O)OCC(=O)[C@@]12O[C@H](C3CCCCC3)O[C@@H]1C[C@H]1[C@@H]3CCC4=CC(=O)C=C[C@]4(C)[C@H]3[C@@H](O)C[C@@]12C [Ciclesonide, ciclesonide, reference compound] ?
9.4

Which Edema suppression rate of 24 hours after administration of inflammatory agent (%) is listed for CC(=O)NC1C(OCC(=O)C23OC(C4CCCCC4)OC2CC2C4CCC5=CC(=O)C=CC5(C)C4C(O)CC23C)OC(COC(C)=O)C(OC(C)=O)C1OC(C)=O (stereo not shown) [Compound 11] ?
39.4

Which Edema suppression rate of 24 hours after administration of inflammatory agent (%) is listed for CC(=O)OC1C(C)OC(OCC(=O)C23OC(C4CCCCC4)OC2CC2C4CCC5=CC(=O)C=CC5(C)C4C(O)CC23C)C(OC(C)=O)C1OC(C)=O (stereo not shown) [Compound 10] ?
45.8

Which Edema suppression rate of 24 hours after administration of inflammatory agent (%) is listed for CC12C=CC(=O)C=C1CCC1C2C(O)CC2(C)C1CC1OC(C3CCCCC3)OC12C(=O)COC1OC(COC=O)C(OC=O)C(OC=O)C1OC=O (stereo not shown) ?
52.0
